# measurement target: ANGPTL2
# particulars: ASO, 5 µM
After the bases stand the sugars from the 5' end (letter, count) and the backbone: PS all phosphorothioate, else s phosphorothioate and o phosphodiester by linkage. Methylation of C is not given here. l = locked nucleic acid (LNA); d = 2'-deoxy (DNA)
Entries annotated with measured target mRNA inhibition
Number only, in %; omit the unit.

// below: answered sequences
>>> meas_value("TTCTGGTAGTGGGCACAG (sugars l1 d15 l2, PS)")
36.8
>>> meas_value("GCATTCCTCAGACAAATC (sugars l2 d14 l2, PS)")
43.6

Now for a further sequence.
Item: AAGCATCATTGAAAATTC (sugars l4 d10 l4, PS) Test system: ANGPTL2 Read-out: target mRNA inhibition Value: ?
75.9
